Molecular target: PTHR1 receptor
Sequence (P25961 whole entry): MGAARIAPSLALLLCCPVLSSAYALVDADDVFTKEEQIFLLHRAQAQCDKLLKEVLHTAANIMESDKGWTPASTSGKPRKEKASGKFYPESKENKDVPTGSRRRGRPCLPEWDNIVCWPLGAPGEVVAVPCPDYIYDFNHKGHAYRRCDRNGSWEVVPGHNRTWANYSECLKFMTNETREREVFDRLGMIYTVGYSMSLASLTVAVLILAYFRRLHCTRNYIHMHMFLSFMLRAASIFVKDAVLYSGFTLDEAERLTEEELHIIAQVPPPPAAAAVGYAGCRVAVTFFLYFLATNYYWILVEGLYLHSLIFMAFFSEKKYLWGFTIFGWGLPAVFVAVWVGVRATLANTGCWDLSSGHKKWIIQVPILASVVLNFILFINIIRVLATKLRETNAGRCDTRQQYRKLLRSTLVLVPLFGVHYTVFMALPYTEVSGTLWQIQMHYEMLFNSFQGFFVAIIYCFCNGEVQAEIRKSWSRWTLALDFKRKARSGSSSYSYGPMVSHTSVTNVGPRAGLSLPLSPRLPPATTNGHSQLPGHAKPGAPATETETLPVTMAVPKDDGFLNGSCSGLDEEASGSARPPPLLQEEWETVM
* marks the point of attachment. Palmitoyl = CCCCCCCCCCCCCCCC(=O)*
This section presents binders with their documented Fold Shift of EC50 values.
Write the numeric value and follow it with the unit.

Consider the reported Fold Shift of EC50 for these binders:
Return reported Fold Shift of EC50. Input binder: Palmitoyl-TNAGRSDTRQQYAKLL-NH2 (SMILES CCCCCCCCCCCCCCCC(=O)N[C@H](C(=O)N[C@@H](CC(N)=O)C(=O)N[C@@H](C)C(=O)NCC(=O)N[C@@H](CCCNC(=N)N)C(=O)N[C@@H](CO)C(=O)N[C@@H](CC(=O)O)C(=O)N[C@H](C(=O)N[C@@H](CCCNC(=N)N)C(=O)N[C@@H](CCC(N)=O)C(=O)N[C@@H](CCC(N)=O)C(=O)N[C@@H](Cc1ccc(O)cc1)C(=O)N[C@@H](C)C(=O)N[C@@H](CCCCN)C(=O)N[C@@H](CC(C)C)C(=O)N[C@@H](CC(C)C)C(N)=O)[C@@H](C)O)[C@@H](C)O) [Compound 91] 2 fold

Return reported Fold Shift of EC50. Input binder: Palmitoyl-HSLIFMAFFSEKKYL-NH2 (SMILES CCCCCCCCCCCCCCCC(=O)N[C@@H](Cc1c[nH]cn1)C(=O)N[C@@H](CO)C(=O)N[C@@H](CC(C)C)C(=O)N[C@H](C(=O)N[C@@H](Cc1ccccc1)C(=O)N[C@@H](CCSC)C(=O)N[C@@H](C)C(=O)N[C@@H](Cc1ccccc1)C(=O)N[C@@H](Cc1ccccc1)C(=O)N[C@@H](CO)C(=O)N[C@@H](CCC(=O)O)C(=O)N[C@@H](CCCCN)C(=O)N[C@@H](CCCCN)C(=O)N[C@@H](Cc1ccc(O)cc1)C(=O)N[C@@H](CC(C)C)C(N)=O)[C@@H](C)CC) [Compound 33] 1.1 fold

Return reported Fold Shift of EC50. Input binder: Palmitoyl-SRWTLALDFKRKAR-NH2 (SMILES CCCCCCCCCCCCCCCC(=O)N[C@@H](CO)C(=O)N[C@@H](CCCNC(=N)N)C(=O)N[C@@H](Cc1c[nH]c2ccccc12)C(=O)N[C@H](C(=O)N[C@@H](CC(C)C)C(=O)N[C@@H](C)C(=O)N[C@@H](CC(C)C)C(=O)N[C@@H](CC(=O)O)C(=O)N[C@@H](Cc1ccccc1)C(=O)N[C@@H](CCCCN)C(=O)N[C@@H](CCCNC(=N)N)C(=O)N[C@@H](CCCCN)C(=O)N[C@@H](C)C(=O)N[C@@H](CCCNC(=N)N)C(N)=O)[C@@H](C)O) [Compound 104] 1.2 fold

Now turn to the next binder.
Return reported Fold Shift of EC50. Input binder: Palmitoyl-NIVRVLATKLRETNAGR-NH2 (SMILES CCCCCCCCCCCCCCCC(=O)N[C@@H](CC(N)=O)C(=O)N[C@H](C(=O)N[C@H](C(=O)N[C@@H](CCCNC(=N)N)C(=O)N[C@H](C(=O)N[C@@H](CC(C)C)C(=O)N[C@@H](C)C(=O)N[C@H](C(=O)N[C@@H](CCCCN)C(=O)N[C@@H](CC(C)C)C(=O)N[C@@H](CCCNC(=N)N)C(=O)N[C@@H](CCC(=O)O)C(=O)N[C@H](C(=O)N[C@@H](CC(N)=O)C(=O)N[C@@H](C)C(=O)NCC(=O)N[C@@H](CCCNC(=N)N)C(N)=O)[C@@H](C)O)[C@@H](C)O)C(C)C)C(C)C)[C@@H](C)CC) [Compound 54] 0.7 fold
